The measurements presented in this section are drawn from patent US20080318993A1.

Assay: Example 5: plasma pharmacokinetics of EN3202 20 mg in hepatic impairment vs healthy controls
Details: human, plasma, oral, 20 mg, Cmax, Subject 009 (Child-Pugh Class B)
quantity name: Cmax (ng/mL)
Give your result in ng/mL as a bare value.

-- ask In one line, give reported Cmax of the entry CN1CC[C@]23c4c5ccc(O)c4O[C@H]2C(=O)CC[C@@]3(O)[C@H]1C5.Cl .
-- reply 19.6

* * *

Test: Example 5: plasma pharmacokinetics of EN3202 20 mg in hepatic impairment vs healthy controls
Details: human, plasma, oral, 20 mg, Cmax, Subject 010 (Child-Pugh Class B)
quantity name: Cmax (ng/mL)
Give your result in ng/mL as a bare value.

-- ask In one line, give reported Cmax of the entry CN1CC[C@]23c4c5ccc(O)c4O[C@H]2C(=O)CC[C@@]3(O)[C@H]1C5.Cl .
-- reply 3.72

* * *

Test: Example 5: plasma pharmacokinetics of EN3202 20 mg in hepatic impairment vs healthy controls
Conditions: human, plasma, oral, 20 mg, Cmax, range among subjects, control group
quantity name: Cmax

-- ask In one line, give reported Cmax of the entry CN1CC[C@]23c4c5ccc(O)c4O[C@H]2C(=O)CC[C@@]3(O)[C@H]1C5.Cl .
-- reply 0.64 to 2.83 ng/mL

* * *

Test: Example 5: plasma pharmacokinetics of EN3202 20 mg in hepatic impairment vs healthy controls
Conditions: human, plasma, oral, 20 mg, Cmax, Subject 007 (Child-Pugh Class A)
quantity name: Cmax
Returns: string containing the number followed by the unit.

-- ask In one line, give reported Cmax of the entry CN1CC[C@]23c4c5ccc(O)c4O[C@H]2C(=O)CC[C@@]3(O)[C@H]1C5.Cl .
-- reply 0.0114 µg/mL

* * *

Test: Example 5: plasma pharmacokinetics of EN3202 20 mg in hepatic impairment vs healthy controls
Conditions: human, plasma, oral, 20 mg, T½, Healthy Controls; mean (SD)
quantity name: half-life
Returns: string containing the number followed by the unit.

-- ask In one line, give reported half-life of the entry CN1CC[C@]23c4c5ccc(O)c4O[C@H]2C(=O)CC[C@@]3(O)[C@H]1C5.Cl .
-- reply 9.98 h

* * *

Experiment: Example 5: plasma pharmacokinetics of EN3202 20 mg in hepatic impairment vs healthy controls
Details: human, plasma, oral, 20 mg, Cmax, range among subjects, mild impairment
quantity name: Cmax

-- ask In one line, give reported Cmax of the entry CN1CC[C@]23c4c5ccc(O)c4O[C@H]2C(=O)CC[C@@]3(O)[C@H]1C5.Cl .
-- reply 0.86 to 11.4 ng/mL

* * *

Assay: Example 5: plasma pharmacokinetics of EN3202 20 mg in hepatic impairment vs healthy controls
Details: human, plasma, oral, 20 mg, Cmax, Moderate-Severe Impairment; mean (SD)
quantity name: Cmax (ng/mL)
Give your result in ng/mL as a bare value.

-- ask In one line, give reported Cmax of the entry CN1CC[C@]23c4c5ccc(O)c4O[C@H]2C(=O)CC[C@@]3(O)[C@H]1C5.Cl .
-- reply 9.16

* * *

Test: Example 5: plasma pharmacokinetics of EN3202 20 mg in hepatic impairment vs healthy controls
Details: human, plasma, oral, 20 mg, Individual AUC results, range, subjects with moderate-severe impairment
Protocol: While in the clinic, the subjects were to refrain from strenuous physical activity. All study medications were supplied by the sponsor. […] A single 20 mg dose EN3202 was administered following an overnight fast (from approximately 22:00 on the evening prior to dose administration) at approximately 08:00, and participants were not allowed to eat until at least four hours after the dose. […] Pharmacokinetic parameters were calculated using model-independent methods. […]
quantity name: AUC

-- ask In one line, give reported AUC of the entry CN1CC[C@]23c4c5ccc(O)c4O[C@H]2C(=O)CC[C@@]3(O)[C@H]1C5.Cl [Oxymorphone] .
-- reply 24.9 to 250 ng·h/mL

* * *

Test: Example 5: plasma pharmacokinetics of EN3202 20 mg in hepatic impairment vs healthy controls
Settings: human, plasma, oral, 20 mg, Individual AUC results, range, subjects with mild impairment
quantity name: AUC

-- ask In one line, give reported AUC of the entry CN1CC[C@]23c4c5ccc(O)c4O[C@H]2C(=O)CC[C@@]3(O)[C@H]1C5.Cl [Oxymorphone] .
-- reply 15.3 to 74.8 ng·h/mL

* * *

Experiment: Example 5: plasma pharmacokinetics of EN3202 20 mg in hepatic impairment vs healthy controls
Details: human, plasma, oral, 20 mg, AUC, Subject 006 (Child-Pugh Class B)
quantity name: AUC
Returns: string containing the number followed by the unit.

-- ask In one line, give reported AUC of the entry CN1CC[C@]23c4c5ccc(O)c4O[C@H]2C(=O)CC[C@@]3(O)[C@H]1C5.Cl .
-- reply 45.4 ng·h/mL

* * *

Assay: Example 5: plasma pharmacokinetics of EN3202 20 mg in hepatic impairment vs healthy controls
Details: human, plasma, oral, 20 mg, Cmax, Healthy Controls; mean (SD)
quantity name: Cmax (ng/mL)
Give your result in ng/mL as a bare value.

-- ask In one line, give reported Cmax of the entry CN1CC[C@]23c4c5ccc(O)c4O[C@H]2C(=O)CC[C@@]3(O)[C@H]1C5.Cl .
-- reply 1.73

* * *

Assay: Example 5: plasma pharmacokinetics of EN3202 20 mg in hepatic impairment vs healthy controls
Details: human, plasma, oral, 20 mg, AUC, Moderate-Severe Impairment; mean (SD); single 20 mg EN3202, fasting
quantity name: AUC (ng·h/mL)
Give your result in ng·h/mL as a bare value.

-- ask In one line, give reported AUC of the entry CN1CC[C@]23c4c5ccc(O)c4O[C@H]2C(=O)CC[C@@]3(O)[C@H]1C5.Cl .
-- reply 106
